Measured values drawn from ChEMBL document CHEMBL3244066 for this set.

target: Histidine decarboxylase (Rattus norvegicus); assay: Inhibition of histidine decarboxylase in Sprague-Dawley rat stomach assessed as decrease in 14CO2 production using L-histidine-carboxyl-14C as substrate at 0.10 mM by scintillation counting analysis
Sequence (P16453 whole entry): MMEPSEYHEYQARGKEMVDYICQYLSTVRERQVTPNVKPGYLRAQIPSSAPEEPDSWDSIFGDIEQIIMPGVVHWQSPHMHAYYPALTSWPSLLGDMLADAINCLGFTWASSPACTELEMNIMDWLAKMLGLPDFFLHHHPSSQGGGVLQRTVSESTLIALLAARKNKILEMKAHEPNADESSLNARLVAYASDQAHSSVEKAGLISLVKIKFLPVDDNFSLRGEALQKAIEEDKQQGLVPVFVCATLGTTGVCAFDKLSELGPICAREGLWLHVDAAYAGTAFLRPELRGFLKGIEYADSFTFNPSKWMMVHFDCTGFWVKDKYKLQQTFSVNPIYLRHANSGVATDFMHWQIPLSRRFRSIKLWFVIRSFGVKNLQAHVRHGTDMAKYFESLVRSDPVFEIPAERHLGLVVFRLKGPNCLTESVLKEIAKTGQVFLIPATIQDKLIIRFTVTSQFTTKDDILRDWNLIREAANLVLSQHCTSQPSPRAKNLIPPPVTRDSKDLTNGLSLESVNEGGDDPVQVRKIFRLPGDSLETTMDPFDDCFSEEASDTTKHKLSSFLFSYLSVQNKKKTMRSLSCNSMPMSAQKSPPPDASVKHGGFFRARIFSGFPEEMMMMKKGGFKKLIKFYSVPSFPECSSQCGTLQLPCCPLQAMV
Peptide text beside a SMILES is read from it.
test.readout: inhibition (%)
One number for each entry, in %.

CCCC(N)(Cc1c[nH]cn1)C(=O)OC (racemic)
2
N[C@@H](Cc1c[nH]cn1)C(=O)NCC(=O)O (H-His-Gly-OH)
0
N[C@@H](Cc1cnc[nH]1)C(=O)NO
14
Cc1nc(CC(N)C(=O)O)c[nH]1 (racemic)
0
COC(=O)CCc1c[nH]cn1
10

State recorded inhibition for all listed molecules.
1. CCOC(=O)C(N)(CC)Cc1c[nH]cn1 (racemic)
2. CNC(=O)C(N)Cc1c[nH]cn1 (racemic)
3. N[C@@H](Cc1nc[nH]c1[N+](=O)[O-])C(=O)O

## Output
1. 13
2. 0
3. 0

For each of the items listed, what is its inhibition?
1. Cn1cnc(C[C@H](N)C(=O)O)c1
2. COC(=O)C(C)(Cc1c[nH]cn1)[N+](=O)[O-] (racemic)

## Output
0
25

Need inhibition for each of these molecules.
1. COC(=O)C(C)(N)Cc1c[nH]cn1 (racemic)
2. CCCCC(Cc1c[nH]cn1)(C(=O)OC)[N+](=O)[O-] (racemic)
3. CCCOC(=O)C(N)Cc1c[nH]cn1 (racemic)
4. C[n+]1c[nH]cc1C[C@H](N)C(=O)O
5. CCCCC(N)(Cc1c[nH]cn1)C(=O)O (racemic)
6. C[C@](N)(Cc1c[nH]cn1)C(=O)O

## Output
[3, 24, 22, 0, 3, 19]

====

molecular target: Histidine decarboxylase (Rattus norvegicus); experiment: Inhibition of histidine decarboxylase in Sprague-Dawley rat stomach assessed as decrease in 14CO2 production using L-histidine-carboxyl-14C as substrate by Dixon plot analysis
test.readout: pKi
Give bare numbers, as −log10 of the molar value.

## Input What pKi value was documented for this compound, `COC(=O)[C@@H](N)Cc1c[nH]cn1` ?
## Output 5.74

====

molecular target: Histidine decarboxylase (Rattus norvegicus); experiment: Inhibition of histidine decarboxylase in Sprague-Dawley rat stomach assessed as decrease in 14CO2 production using L-histidine-carboxyl-14C as substrate at 0.10 mM by scintillation counting analysis
Class Fulfilled: inhibition at least 5%. Class Not fulfilled: inhibition below 5%.

CCOC(=O)C(Cc1c[nH]cn1)(c1ccccc1)[N+](=O)[O-] (racemic)
Fulfilled
CCCC(Cc1c[nH]cn1)(C(=O)OC)[N+](=O)[O-] (racemic)
Fulfilled
CCCCOC(=O)C(N)Cc1c[nH]cn1 (racemic)
Fulfilled
COC(=O)[C@@H](N)Cc1nc[nH]c1[N+](=O)[O-]
Not fulfilled
O=C(O)C(Br)Cc1cnc[nH]1 (racemic)
Fulfilled

From here, focus on the item given below.
## Input Decide: is the reported value of inhibition for CCCCC(N)(Cc1c[nH]cn1)C(=O)OC (racemic) equal to or greater than 5%?
## Output Not fulfilled
